System: DU-145
Assay: NCI tumour cell line growth inhibition, 48 h
Activity calls are given as the source filed them. Cut-off read from the data, not from the text of the source: active = GI50 up to about 1.1 µM and inactive = higher.
measured-parameter: GI50

> print(dat)
                                   compound       measured.result
1        N#CCCOc1cccc(C2(N3CCCCC3)CCCCC2)c1   > 100 µM (inactive)
2  O=C(c1cc(Cl)cc(Cl)c1)N1CCN(C(=O)c2cc(Cl)cc(Cl)c2)C1=S    9.18 µM (inactive)
3                                  NCCCNCCS   > 100 µM (inactive)
4  CC(C)(C)OC(=O)NCC(c1c[nH]c2ccc(Br)cc12)c1c[nH]c2ccc(Br)cc12    11.7 µM (inactive)
5  CC1OC(n2cc(F)c(=O)[nH]c2=O)CCC1O (stereo not given)  > 77.6 µM (inactive)

====

System: SF-295
Experiment: NCI tumour cell line growth inhibition, 48 h
The source made the active and inactive calls. Rule as the data show it: active = GI50 up to about 1.1 µM and inactive = higher.
measured-parameter: GI50

> print(dat)
                                   compound      measured.result
1  COCCCNC(=O)C1=C(C)NC(C)=C(C(=O)NCCCOC)C1  > 100 µM (inactive)
2  Cc1ccc(S(=O)(=O)N(c2ccccc2F)C2CCCCC2O)cc1 (stereo unspecified)  > 100 µM (inactive)
3  Cn1ncc2c(Nc3cccc(Cl)c3)nc(Nc3cccc(Cl)c3)nc21   5.47 µM (inactive)
4  COc1ccc(CCN2C(=O)C(=O)C(C(=O)c3ccccc3)C2c2ccccc2)cc1OC (stereo unspecified)   44.2 µM (inactive)
5                      C=C(Br)CN(C)CC(=C)Br  > 100 µM (inactive)
6  O=C1NC(=O)C(CC2CCCCCCCCCCC2=O)C(=O)N1 (stereo unspecified)  > 100 µM (inactive)

====

System: SNB-75
Test: NCI tumour cell line growth inhibition, 48 h
The source made the active and inactive calls. Rule as the data show it: active = GI50 up to about 1.1 µM and inactive = higher.
measured-parameter: GI50

> print(dat)
                                   molecule      measured.result
1   CSc1c(C#N)c(N)n(-c2ccc(C)cc2)c(=O)c1C#N  > 100 µM (inactive)
2  CCC(Sc1cc(Cl)c(C)cc1S(=O)(=O)Nc1nc(N)nc(N(C)C)n1)C(=O)O (stereo not given)   > 10 µM (inactive)
3   O=C(NCc1ccccc1Cl)c1c(O)c2ccccc2[nH]c1=O   21.6 µM (inactive)
4                   ON(CCc1ccccn1)Cc1ccccc1  > 100 µM (inactive)
5  CCc1c(Cc2[nH]c(Cc3[nH]c(C=O)c(C)c3CC)c(CC)c2CC)[nH]c(C=O)c1C   34.6 µM (inactive)

====

System: COLO 205
Assay: NCI tumour cell line growth inhibition, 48 h
The source made the active and inactive calls. No stated cut-off is given here; in the data, active = GI50 up to about 1.1 µM and inactive = higher.
Items are presented alongside their recorded GI50.
measured-parameter: GI50

> print(dat)
                                    molecule  study.target       measured.result
 1  C[n+]1c(-c2ccc(/C=N/NC(=O)c3ccc(C(=O)N/N=C/c4ccc(-c5cn6ccccc6[n+]5C)cc4)cc3)cc2)cn2ccccc21      COLO 205   > 100 µM (inactive)
 2  Cc1cc2[n-][n+]3ncc(-c4ccccc4)n3c2cc1[N+](=O)[O-]      COLO 205   > 100 µM (inactive)
 3  O=C(NS(=O)(=O)OCC(Cl)(Cl)Cl)SCCC(F)(F)C(F)(F)C(F)(F)C(F)(F)C(F)(F)C(F)(F)F      COLO 205    17.9 µM (inactive)
 4  COc1ccc(C(c2ccc(C(C)C)cc(=O)c2O)c2c(O)cc3oc(-c4ccccc4)cc(=O)c3c2O)cc1 (stereo not given)      COLO 205    9.79 µM (inactive)
 5  CC(C)N(C(=O)C12C3(C(=O)OC(C)(C)C)C4C5(C#N)C3C1(C(=O)OC(C)(C)C)C5C42C(=O)OC(C)(C)C)C(C)C (stereo not given)      COLO 205    21.5 µM (inactive)
 6                      c1cc2c(ncc3cscc32)s1      COLO 205   > 100 µM (inactive)
 7  O=C(O[C@H](/C=C/c1ccccc1)P1(=O)N(Cc2ccccc2)[C@H]2CCCC[C@@H]2N1Cc1ccccc1)c1ccccc1      COLO 205    1.68 µM (inactive)
 8          COc1ccc(NC(=O)C(C#N)=C(SC)SC)cc1      COLO 205   > 100 µM (inactive)
 9        O=C(Nc1nc2c(=O)[nH]cnc2s1)c1ccccc1      COLO 205   > 100 µM (inactive)
10        Cc1nc2ccccc2c(-n2cccn2)c1CCn1cccn1      COLO 205    96.6 µM (inactive)
11  Cc1c(S(=O)(=O)/N=C(\NN)Nc2ccc(Cl)cc2)sc2ccc(Cl)cc12      COLO 205    16.3 µM (inactive)
12  Cn1ncc2c(Nc3cccc(Cl)c3)nc(Nc3cccc(Cl)c3)nc21      COLO 205  > 24.7 µM (inactive)
13           CC(C)/C(=N\[N+](C)(C)C)c1ccccc1      COLO 205   > 100 µM (inactive)
14  O=C1NC(N2CCCC(CO)C2)=N/C1=C\c1ccc(O)cc1 (stereo not given)      COLO 205   > 100 µM (inactive)
15   COC(=O)c1ccc(/C=C/S(=O)(=O)c2ccccc2)cc1      COLO 205   > 100 µM (inactive)
16  COc1ccc(-c2oc3cc(-c4cc5oc(-c6ccc(OC)cc6)c(-c6ccc(OC)cc6)c5cc4OC)c(OC)cc3c2-c2ccc(OC)cc2)cc1      COLO 205   > 100 µM (inactive)
17   Cc1nc2ccccc2cc1C[N+]12CN3CN(CN(C3)C1)C2      COLO 205    14.1 µM (inactive)
18  COC(=O)CCc1cc(O)c2c(c1)C(C(=O)OC)C(c1ccc(O)c(O)c1)O2 (stereo not given)      COLO 205    31.4 µM (inactive)
19  O=C1c2ccccc2C(=O)c2sc(Nc3ccc([N+](=O)[O-])cc3)nc21      COLO 205    8.59 µM (inactive)
20                CCCNC(=O)Cn1c(C)cc2ccccc21      COLO 205   > 100 µM (inactive)
